# protein stability index listing for each entry below
B1: MATN2 (parent)
chain: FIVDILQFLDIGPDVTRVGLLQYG

# Variants of: B1
# protocol-text: protein stability index of a GFP-peptide fusion (GPS, HEK-293T) (PSI 1-6); higher = more stable;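 also: lentivirally expressed fusions sorted by FACS into six bins by GFP to DsRed ratio, PSI derived from sequencing read proportions per bin multiplied by bin number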
# experimental-conditions: c terminus: a fixed tail appended

Guide cases for protein stability index, answers given:
Y23T	3.99
L21S	2.57
I11C	1.18
I2H	3.01

# input Value lookup for protein stability index; key = L6Y
# output 2.87

# input Field request: protein stability index | item: P13A
# output 3.91

# input Return reported protein stability index; argument: F8Q
# output 2.49

Data credit: the supplement of paper PMC10567573
